Biological target: Mot3 (UniProt P54785)
Sequence: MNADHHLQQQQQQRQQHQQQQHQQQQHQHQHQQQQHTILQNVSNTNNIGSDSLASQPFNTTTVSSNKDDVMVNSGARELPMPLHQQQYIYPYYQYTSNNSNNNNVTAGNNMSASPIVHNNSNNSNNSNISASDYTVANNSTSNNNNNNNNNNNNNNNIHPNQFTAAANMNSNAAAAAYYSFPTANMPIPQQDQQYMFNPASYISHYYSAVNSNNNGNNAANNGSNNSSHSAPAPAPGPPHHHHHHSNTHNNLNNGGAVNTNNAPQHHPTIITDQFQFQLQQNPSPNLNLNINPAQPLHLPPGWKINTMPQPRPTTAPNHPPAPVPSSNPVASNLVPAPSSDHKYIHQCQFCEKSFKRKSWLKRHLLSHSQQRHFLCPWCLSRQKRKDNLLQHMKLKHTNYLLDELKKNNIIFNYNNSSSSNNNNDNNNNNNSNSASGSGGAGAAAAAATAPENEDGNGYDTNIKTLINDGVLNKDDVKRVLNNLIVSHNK
Assay: PBM E-score (8-mer binding enrichment) (E-score (-0.5 to 0.5)); higher = stronger / more preferred TF binding
Conditions: protein concentration: 200 nM; construct: GST-full length
Over roughly 33,000 sequences, “E-score (-0.5 to 0.5)” has its median near -0.035; the highest 2% begin near 0.34. The sample holds the highest values, similar sequences and a random draw of the others, so the mix is not that of the screen.
The label depends only on PBM E-score: 1 (yes) if it is at least 0.1, 0 (no) if it is smaller.

The following sequences have reported results that may help.
CCAAGGCA
1 (yes)
ACAAGGCT
1 (yes)
CCAAGGCC
0 (no)
ACAAGGCA
1 (yes)
CAGACACC
0 (no)
GAAAGGTA
1 (yes)

Challenge: Form field: PBM E-score at least 0.1? Entry: TCAAGGGA
Response given: 0 (no)

Challenge: Form field: PBM E-score at least 0.1? Entry: ATCTCTTG
Response given: 0 (no)

Challenge: Form field: PBM E-score at least 0.1? Entry: GCAAGGCA
Response given: 1 (yes)

Challenge: Form field: PBM E-score at least 0.1? Entry: AAAAGGAC
Response given: 1 (yes)

Challenge: Form field: PBM E-score at least 0.1? Entry: GCAATGGA
Response given: 0 (no)
